- Tested on: OVCAR-4 ovarian
- experimentDescription: NCI tumour cell line growth inhibition, 48 h
assayReadout: TGI

Reference set, count: 4
| compound | assayTarget | reading |
| --- | --- | --- |
| C/C(=N\N=C(\N)OB(F)F)c1ccccn1 | OVCAR-4 ovarian | > 100 µM |
| NC1=NN(c2ccccc2)C(=O)C1C(=O)C(=O)NC1C2CC3CC(C2)CC1C3 (stereo unspecified) | OVCAR-4 ovarian | > 100 µM |
| COC(=O)C1C2CC3C(OC(=O)C31)C2I (stereo unspecified) | OVCAR-4 ovarian | > 100 µM |
| N#CC(NC12CC3CC(CC(C3)C1)C2)c1ccccc1 (stereo unspecified) | OVCAR-4 ovarian | > 100 µM |

Quick request: TGI for each listed item, please.
1. CC(=O)NC(ON1C(=O)COc2ccccc21)C(Cl)(Cl)Cl (stereo unspecified)
2. S=C(Nc1ccc(-c2nc3ccccc3s2)cc1)Nc1ccccn1
3. CNC(=O)c1cc(Oc2ccc3nc(NC(=O)c4cc(C(F)(F)F)cc(C(F)(F)F)c4)sc3c2)ccn1
4. Nn1c(-c2ccccc2Nc2ccccc2-c2n[nH]c(=S)n2N)n[nH]c1=S

Ans:
["> 100 µM", "> 100 µM", "27.2 µM", "> 50 µM"]
